- Test: AUC (0 to infinity) in healthy human plasma at 150 mg, po co-treated with ritonavir 200 mg tid for 1 day, 300 mg bid for next 6 days, 400 mg bid upto 17 day of study measured after 48 hrs
- Format: ADME, organism-based
- Set-up: dose 150 mg, time infinity, route oral
Measured Metric: AUC(0-inf) (ng·h/mL)
The figure you give is taken to be in ng·h/mL; do not add the unit.

Query block: Complete the entry with AUC(0-inf) for CC(NC(C)(C)C)C(=O)c1cccc(Cl)c1 (racemic)
Result block: 1030

====

- Test: AUC in healthy human plasma at 100 mg, po bid for 2 weeks
- Type: ADME, organism-based
Measured Metric: AUC at 336 h (ng·h/mL)
The figure you give is taken to be in ng·h/mL; do not add the unit.

Query block: Complete the entry with AUC at 336 h for CC(NC(C)(C)C)C(=O)c1cccc(Cl)c1 (racemic) [BUPROPION]
Result block: 50

====

- Test: clinical
- Experimental Context: human, plasma, po
Measured Metric: Cmax (ng/mL)
The figure you give is taken to be in ng/mL; do not add the unit.

Query block: Complete the entry with Cmax for CC(NC(C)(C)C)C(=O)c1cccc(Cl)c1 (racemic) [BUPROPION]
Result block: 345

====

- Test: AUC in healthy human plasma at 400 mg, po bid for 2 weeks
- Format: ADME, organism-based
Measured Metric: AUC at 336 h (ng·h/mL)
The figure you give is taken to be in ng·h/mL; do not add the unit.

Query block: Complete the entry with AUC at 336 h for CC(NC(C)(C)C)C(=O)c1cccc(Cl)c1 (racemic)
Result block: 57

====

- Test: AUC (0 to infinity) in healthy human plasma at 150 mg, po co-treated with ritonavir 200 mg tid for 1 day, 300 mg bid for next 2 days measured after 48 hrs
- Type: ADME, organism-based
- Design: dose 150 mg, route oral, time infinity
Measured Metric: AUC(0-inf)

Query block: Complete the entry with AUC(0-inf) for CC(NC(C)(C)C)C(=O)c1cccc(Cl)c1 (racemic)
Result block: 1290 ng·h/mL

====

- Test: clinical
- Experimental Context: human, plasma, po
Measured Metric: half-life (h)
The figure you give is taken to be in h; do not add the unit.

Query block: Complete the entry with half-life for CC(NC(C)(C)C)C(=O)c1cccc(Cl)c1 (racemic)
Result block: 17.8

====

- Test: Apparent renal clearance in human at 150 mg, po co-treated with ritonavir 200 mg tid for 1 day, 300 mg bid for next 6 days, 400 mg bid upto 17 day of study using 0-48 hrs urine sample
- Format: ADME, organism-based
- Experimental Context: read-out: CL_renal
Measured Metric: CL renal (mL/min)
The figure you give is taken to be in mL/min; do not add the unit.

Query block: Complete the entry with CL renal for CC(NC(C)(C)C)C(=O)c1cccc(Cl)c1 (racemic) [BUPROPION]
Result block: 21

====

- Test: clinical
- Experimental Context: human, plasma, po
Measured Metric: half-life (h)
The figure you give is taken to be in h; do not add the unit.

Query block: Complete the entry with half-life for CC(NC(C)(C)C)C(=O)c1cccc(Cl)c1 (racemic) [BUPROPION]
Result block: 16.8

====

- Test: Apparent clearance with respect to oral bioavailability in human at 150 mg, po co-treated with ritonavir 200 mg tid for 1 day, 300 mg bid for next 6 days, 400 mg bid upto 17 day of study measured after 48 hrs
- Assay type: ADME, organism-based
- Experimental Context: in vivo
Measured Metric: CL/F (mL/min)
The figure you give is taken to be in mL/min; do not add the unit.

Query block: Complete the entry with CL/F for CC(NC(C)(C)C)C(=O)c1cccc(Cl)c1 (racemic)
Result block: 3240
